assay: qHTS RealTime-Glo MT Cell Viability Assay in HEK293 cells - 32 hour (AID 1224868); conditions: RealTime-Glo luminescence; series mostly up to 76.8 µM; further: nearly all actives have a fitted effect of over 50% in size
Results filed as inconclusive are left out. Activity calls are given as the source filed them. The call rests on the fitted dose curve; in most records, active means well fitted cell-killing curve with a large enough effect in the repeat runs; inconclusive means weak or mixed curves, or effect the other way; inactive means flat fitted curve, though single readings scatter.
Could you please pick one outcome from this set? active, inactive

Below, 5 molecules whose answers are already recorded.
molecule	group
CCCOc1ccc2c(c1)CC[C@@H]1[C@@H]2CC[C@]2(C)C(OC)CC[C@@H]12 (stereo partly drawn)	inactive
O=C(CCCl)NCc1ccccc1	inactive
OCCN(CCO)CCN(CCO)CCO	inactive
FC(F)(F)c1ccccc1	inactive
O=c1[nH]c(=O)n([C@H]2C[C@H](O)[C@@H](CO)O2)cc1C(F)(F)F	inactive

Test call for this molecule, please: `NC(=O)NS(=O)(=O)c1ccc(Cl)cc1` inactive

Which outcome was entered for the molecule `CCCCOc1cc(C(=O)NCCN(CC)CC)c2ccccc2n1` in this test? active

Which outcome did this test record for the molecule `CC(=O)N[C@@H](CC(C)C)C(=O)O` ? inactive

###

biological target: Progesterone receptor (Homo sapiens) (UniProt P06401); assay: qHTS assay to identify small molecule antagonists of the progesterone receptor (PR) signaling pathway (AID 1346795); details: PR-UAS-bla HEK293T, beta-lactamase FRET ratio, 16 h; series mostly up to 92.4 µM
Sequence (P06401 whole entry, looked up): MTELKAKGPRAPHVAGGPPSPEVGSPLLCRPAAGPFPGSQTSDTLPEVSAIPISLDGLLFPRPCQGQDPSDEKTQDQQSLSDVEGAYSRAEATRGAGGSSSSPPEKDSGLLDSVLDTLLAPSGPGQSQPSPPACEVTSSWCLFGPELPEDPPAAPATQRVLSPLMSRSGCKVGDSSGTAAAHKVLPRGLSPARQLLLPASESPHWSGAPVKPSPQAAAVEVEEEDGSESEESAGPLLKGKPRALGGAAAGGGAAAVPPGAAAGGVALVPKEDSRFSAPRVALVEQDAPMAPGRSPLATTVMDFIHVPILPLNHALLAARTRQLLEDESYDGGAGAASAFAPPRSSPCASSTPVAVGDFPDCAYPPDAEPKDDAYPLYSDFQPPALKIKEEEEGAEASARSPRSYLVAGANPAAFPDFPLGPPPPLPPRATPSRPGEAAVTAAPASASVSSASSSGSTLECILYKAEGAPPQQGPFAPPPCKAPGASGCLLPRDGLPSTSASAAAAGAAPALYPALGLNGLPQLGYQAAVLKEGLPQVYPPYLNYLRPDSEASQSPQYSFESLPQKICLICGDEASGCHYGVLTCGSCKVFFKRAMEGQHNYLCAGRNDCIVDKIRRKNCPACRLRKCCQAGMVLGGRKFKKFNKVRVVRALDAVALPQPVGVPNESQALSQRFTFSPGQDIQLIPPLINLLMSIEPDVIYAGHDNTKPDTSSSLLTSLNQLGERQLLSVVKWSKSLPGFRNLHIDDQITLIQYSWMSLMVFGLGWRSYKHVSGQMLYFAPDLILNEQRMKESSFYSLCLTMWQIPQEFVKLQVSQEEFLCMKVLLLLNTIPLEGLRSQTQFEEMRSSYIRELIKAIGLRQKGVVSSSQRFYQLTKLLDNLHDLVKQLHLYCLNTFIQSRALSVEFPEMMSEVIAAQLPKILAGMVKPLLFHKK
Inconclusive results are not listed. Activity calls are given as the source filed them. Calls come from the whole dose curve; as a rule, active = well fitted inhibition curve with a large enough effect in the signal ratio in the repeat runs (not every such curve was filed as active); inconclusive = weak or mixed curves; inactive = flat fitted curve, though single readings scatter; the % refers to the signal ratio.
Log the outcome using a class from T for active, F for inactive

molecule	group
Oc1ccccc1F	F
CCC(=O)Nc1ccc(O)cc1	F
NS(=O)(=O)c1cc(-c2nn[nH]n2)c(NCc2cccs2)cc1Cl	F
COc1cc2c(cc1N)oc1ccccc12	T

Could you check what this test reported for `FC(F)(F)c1ccccc1` ? F

Which outcome was assigned to `NNS(=O)(=O)c1ccc(Oc2ccc(S(=O)(=O)NN)cc2)cc1` in this test? F

Please let me know the test result on file for `CCN(CC)C(=O)N(CC)CC` . F

Field: outcome | Entry: `CC(C)C(=O)OC/C=C/c1ccccc1` F

Outcome? `CC/C=C\CCOC(=O)CCCCC` F

How did this test come out for `C[C@@H](N)C(=O)O` ? F

What outcome does the record of this test show for `CN1CCC[C@@H]1Cc1c[nH]c2ccc(CCS(=O)(=O)c3ccccc3)cc12` ? F

For `CN1CCN(C2=Nc3ccccc3Oc3ccc(Cl)cc32)CC1` , what call appears in the results of this test? T

Recorded test outcome, item NC1=NCC2c3ccccc3Cc3ccccc3N12 (configuration not stated) F

Which result was noted for this molecule in the test: `CCCCCCCOC(=O)CCC` F

###

experiment: qHTS assay for small molecule agonists of the antioxidant response element (ARE) signaling pathway - cell viability counter screen (AID 743203); conditions: ARE-bla HepG2 viability, CellTiter-Glo luminescence, 16 h; series mostly up to 73.3 µM; further: nearly all actives have a fitted effect of over 55% in size
Inconclusive results are not listed. Activity calls are given as the source filed them. Calls follow the shape of the full dose curve.
Would you mind answering with one of these outcomes? active, inactive

Worked examples follow.
molecule	group
Cc1cccc(C)c1NC(=O)CN1CCCCCC1	inactive
CCCOc1ccc2c(c1)CC[C@@H]1[C@@H]2CC[C@]2(C)C(OC)CC[C@@H]12 (stereo partly specified)	inactive
O=Cc1ccc(O)c(O)c1O	inactive
CCOc1ccc(OCC)c(Cl)c1	inactive
CN(C)C(=O)NC1(c2ccccc2)CCN(CCC[C@]2(c3ccc(Cl)c(Cl)c3)CCCN(C(=O)c3ccccc3)C2)CC1	active

Tell me the assay call for `COc1cc(N)c(Cl)cc1C(=O)NC1CCN(Cc2ccccc2)CC1` please. inactive

// param item: `CCCCCCCCc1ccc(S(=O)(=O)O)cc1` ; yields the recorded call inactive

Field: outcome | Entry: CCN1CC(CCN2CCOCC2)C(c2ccccc2)(c2ccccc2)C1=O (stereo unspecified) inactive

Record request — test call for `Cc1cc(NS(=O)(=O)c2ccc(N)cc2)nc(C)n1` inactive

Each molecule tested received a call. Report the one for `C=CCc1cc(OC)c(O)c(C(=O)NCCO)c1` . inactive

Which outcome was entered for the molecule `CCN(O)CC` in this test? inactive
